assay.procedure: gradient 5% acetonitrile 3 min, to 50% in 2 min, to 85% in 15 min, held 3 min, 100 µL/min
measurement.parameters: column: Zorbax Extend-C18 2.1 x 50 mm; eluents: water / acetonitrile, 0.1% formic acid
measured.quantity: RP-LC retention time (s)

As a guide, the following entries are already answered.
compound | measured.quantity | units.symbol | number
Cc1c(C(=O)NCCN2CCOCC2)sc2ncn(CC(=O)N3CCCCC3C)c(=O)c12 (centres undefined) | RP-LC retention time | s | 598
Cc1nc(-c2ccccc2Cl)sc1C(=O)NCCc1c[nH]c2ccccc12 | RP-LC retention time | s | 1020
NC(=O)C1CCN(C(=O)Cc2csc(NC(=O)Nc3ccccc3)n2)CC1 | RP-LC retention time | s | 622
Cn1cc(-c2cc3n(n2)CCCN3C(=O)CCC(=O)NC2CCCCC2)c2ccccc21 | RP-LC retention time | s | 837
Cc1ccc(N2C(=O)N3CCc4c([nH]c5ccccc45)C3(C)C2=O)cc1 (centres undefined) | RP-LC retention time | s | 1020
COC(=O)Cn1c(C2CC(=O)N(c3ccccc3OC)C2)nc2ccccc21 (centres undefined) | RP-LC retention time | s | 674

[1] CCn1cc(-c2nc(-c3ccc(OCC(C)C)cc3)no2)c(=O)c2cc(F)c(N3CCOCC3)cc21
[2] CS(=O)(=O)N1CCC(C(=O)Nc2cc(N3CCOCC3)ncn2)CC1
IN: Identify the item whose RP-LC retention time is the smaller number: 1 or 2 The response must carry the label of the picked entry.
OUT: 2
(2: 563 s, 1: 917 s)

---

assay.procedure: gradient 5% acetonitrile 3 min, to 50% in 2 min, to 85% in 15 min, held 3 min, 100 µL/min
measurement.parameters: column: Zorbax Extend-C18 2.1 x 50 mm; eluents: water / acetonitrile, 0.1% formic acid
measured.quantity: RP-LC retention time (s)

compound | measured.quantity | units.symbol | number
CSCCC(NS(=O)(=O)c1ccc(Oc2ccccc2C)cc1)C(=O)O (stereo not given) | RP-LC retention time | s | 852
CCc1nc2c(NC(=O)c3ccc(C)c(F)c3)cccn2n1 | RP-LC retention time | s | 850
CCC(=O)Nc1cc(C)n(Cc2ccccc2)n1 | RP-LC retention time | s | 733
Cc1ccc(NS(=O)(=O)c2cc3c(s2)CCN(C(=O)C2CC2)C3)cc1C | RP-LC retention time | s | 861
CC(C)NC(=O)N(C1CC1)C1CCOC2(CCN(C(=O)C3CC3)CC2)C1 (stereo not given) | RP-LC retention time | s | 688
CCn1ccc2sc(C)c(C(=O)NCc3cccc(OC)c3OC)c2c1=O | RP-LC retention time | s | 814
O=C(NCc1ccccc1C(F)(F)F)c1ccc2ncnc(N3CCCC3)c2c1 | RP-LC retention time | s | 692
CCOc1ccccc1N1CCN(S(=O)(=O)c2nn(C)cc2C(=O)NCCC(C)C)CC1 | RP-LC retention time | s | 1080
O=C(COc1ccc(F)cc1)N1CCC2(CC1)NC(=O)N(Cc1ccc(Cl)cc1)C2=O | RP-LC retention time | s | 810
COc1ccc(-c2nc(C)c(CCNS(=O)(=O)c3ccc4c(c3)OCCO4)s2)cc1 | RP-LC retention time | s | 831

---

assay.procedure: gradient 5% acetonitrile 3 min, to 50% in 2 min, to 85% in 15 min, held 3 min, 100 µL/min
measurement.parameters: column: Zorbax Extend-C18 2.1 x 50 mm; eluents: water / acetonitrile, 0.1% formic acid
measured.quantity: RP-LC retention time (s)

The examples below pair each entry with its known result.
compound | RP-LC retention time / s
Cc1ccccc1-c1nc(-c2cccc(-c3ccn[nH]3)c2)no1 | 1080
CC(C)(C)C(O)CCNC(=O)NCc1ccc(Cl)cc1 (centres undefined) | 739
Fc1ccccc1CNc1nnc(-c2nc(C3CC3)no2)c2ccccc12 | 952
O=C1CC(c2noc(Cc3ccc(F)cc3)n2)CN1c1ccc(F)c(Cl)c1 (centres undefined) | 1040
Cc1ccc2c(c1)N(S(C)(=O)=O)CCC(C(=O)NCc1ccc(Cl)cc1)O2 (centres undefined) | 954

[a] c1ccc(CCNc2nc(-c3ccccc3)no2)cc1
[b] COc1ccc(OC)c(S(=O)(=O)N2CCCC(C(=O)N3CCOCC3)C2)c1 (centres undefined)
IN: Recorded RP-LC retention time values differ for a and b ; which one is higher? Give the label under which the chosen entry appears.
OUT: a
(a: 1000 s, b: 664 s)
